Test system: HCI11 (cells of an ER-positive luminal breast cancer xenograft);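 also: PDX cells carrying CMV promoter-driven luciferase, viability read as total photon flux per second by IVIS imaging following D-luciferin, vehicle control 0.1% DMSO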
EXPERIMENT_NOTES: cell viability (% of vehicle); higher = less cytotoxic
RUN_CONDITIONS: 10 µM; 72 h

{"COMPOUND": "C=CCc1cc(OC)c(O)c(C(=O)NCCO)c1 [Alibendol]", "cell viability": 110}
{"COMPOUND": "COc1cc(Cc2cnc(N)nc2N)cc(OC)c1OC", "cell viability": 93}
{"COMPOUND": "Cc1cc(C2CCCCC2)n(O)c(=O)c1", "cell viability": 51.7}
{"COMPOUND": "Cc1ccc(Cl)c(Nc2ccccc2C(=O)[O-])c1Cl.[Na+] [Meclofenamate Sodium]", "cell viability": 103}
{"COMPOUND": "COc1cc2c(Oc3ccc(NC(=O)C4(C(=O)Nc5ccc(F)cc5)CC4)cc3F)ccnc2cc1OCCCN1CCOCC1", "cell viability": 52.7}
